- experiment: PET hydrolysis product formed (TPA+MHET+BHET, UV-Vis) per mg enzyme (mmol/mg enzyme); higher = more PET depolymerisation activity; extreme values may be limits of the assay
- reported.conditions: PET substrate: cryPow; 70 °C; pH 6.5; 24 h
endpoint.label: PET hydrolysis product formed

Prompt: Entry under review: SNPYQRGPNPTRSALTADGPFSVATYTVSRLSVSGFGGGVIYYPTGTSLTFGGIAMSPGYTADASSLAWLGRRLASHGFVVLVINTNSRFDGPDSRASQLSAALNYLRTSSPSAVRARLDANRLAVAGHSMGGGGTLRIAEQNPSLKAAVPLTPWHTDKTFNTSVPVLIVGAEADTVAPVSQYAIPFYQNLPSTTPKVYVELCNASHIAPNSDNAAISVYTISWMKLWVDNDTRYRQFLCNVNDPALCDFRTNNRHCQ [LCC-A2] . Reported PET hydrolysis product formed?
Completion: 0.139

Prompt: Moving on to the next sequence: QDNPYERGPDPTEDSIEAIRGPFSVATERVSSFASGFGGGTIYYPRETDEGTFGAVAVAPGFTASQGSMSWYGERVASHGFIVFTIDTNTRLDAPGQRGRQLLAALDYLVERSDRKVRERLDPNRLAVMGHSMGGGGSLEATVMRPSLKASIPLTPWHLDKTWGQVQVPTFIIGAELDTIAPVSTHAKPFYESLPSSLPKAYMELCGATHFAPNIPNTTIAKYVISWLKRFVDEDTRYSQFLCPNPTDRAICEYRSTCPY [Cut190*SS]
Completion: 0.00998

Prompt: Moving on to the next sequence: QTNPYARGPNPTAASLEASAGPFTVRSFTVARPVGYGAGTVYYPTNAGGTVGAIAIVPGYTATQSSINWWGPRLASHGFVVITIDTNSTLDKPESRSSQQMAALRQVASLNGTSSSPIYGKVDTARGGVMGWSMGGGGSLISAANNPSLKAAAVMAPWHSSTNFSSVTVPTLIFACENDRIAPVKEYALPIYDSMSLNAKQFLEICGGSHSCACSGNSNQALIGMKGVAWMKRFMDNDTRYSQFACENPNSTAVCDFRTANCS [HotPETase]
Completion: 0.103

Prompt: Moving on to the next sequence: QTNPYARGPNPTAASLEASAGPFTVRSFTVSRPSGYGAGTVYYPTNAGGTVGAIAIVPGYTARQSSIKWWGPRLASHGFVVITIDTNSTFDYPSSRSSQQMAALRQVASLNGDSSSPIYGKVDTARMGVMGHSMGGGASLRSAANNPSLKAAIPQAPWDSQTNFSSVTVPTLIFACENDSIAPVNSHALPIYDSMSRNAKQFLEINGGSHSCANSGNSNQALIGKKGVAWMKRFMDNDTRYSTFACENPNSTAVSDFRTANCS [DuraPETase]
Completion: 0

Prompt: Moving on to the next sequence: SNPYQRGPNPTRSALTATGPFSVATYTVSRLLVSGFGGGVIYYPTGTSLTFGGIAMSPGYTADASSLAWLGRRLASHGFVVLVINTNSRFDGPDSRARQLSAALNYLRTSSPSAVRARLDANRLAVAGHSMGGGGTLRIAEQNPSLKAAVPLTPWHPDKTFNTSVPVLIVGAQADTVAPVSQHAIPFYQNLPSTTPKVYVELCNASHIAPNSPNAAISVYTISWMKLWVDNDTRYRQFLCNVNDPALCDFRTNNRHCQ [LCC-ICCG I6M]
Completion: 0.05
